methodSummary: Ratio of drug concentration in mouse blood to plasma
Type: ADME, cell-free
readoutName: blood plasma ratio

Look at this compound and give its reported blood plasma ratio. CO[C@@H](CNC(=O)[C@H](NC(=O)[C@H](O)[C@H](C)O)[C@H](O)c1cncn1C)[C@H](O)[C@H](O)C(=O)N(C)[C@@H](Cc1ccccc1)C(=O)NCC(=O)N[C@H](C(=O)N[C@@H](CO)C(=O)N[C@H](C(=O)N[C@H](C(=O)N[C@@H](CC(=O)O)C(=O)N1CCC[C@H]1C(=O)NCc1cc(=O)c(O)cn1O)C(C)(C)C)C(C)(C)O)C(C)(C)O 4.5

---

Tested on: Escherichia coli
methodSummary: Antibacterial activity against Escherichia coli ATCC 35218 assessed as reduction in microbial growth incubated for 20 to 22 hrs by CLSI based analysis
Assay type: functional
assayConditions: time 20-22 hrs
Numbered stars: 1 amine (or outer) side, 2 acyl side, 3 side chain; on linkers, the order of the positions; unused ones are H or OH. Square brackets hold non-standard residues; d marks the D form. Peptide text beside a SMILES is read from it. * marks the point of attachment. Ava(2S,3R-(OH)2,4S-OMe) = CO[C@@H](CN[*:1])[C@H](O)[C@H](O)C(=O)[*:2]; dHis(βS-OH,π-Me) = Cn1cncc1[C@@H](O)[C@@H](N)C(=O)O; Butanoyl(2R-OH,3S-OH) = C[C@H](O)[C@@H](O)C(=O)*; Val(3-OH) = CC(C)(O)[C@H](N)C(=O)O; NMeF = CN[C@@H](Cc1ccccc1)C(=O)O
readoutName: MIC (µg/mL)
Form entry: value (µg/mL) — number only.

Please review the following examples before continuing.
molecule	MIC, µg/mL
CO[C@@H](CNC(=O)[C@H](NC(=O)[C@H](O)[C@H](C)O)[C@H](O)c1cncn1C)[C@H](O)[C@H](O)C(=O)N(C)[C@@H](Cc1ccccc1)C(=O)NCC(=O)N[C@H](C(=O)N[C@@H](CO)C(=O)N[C@H](C(=O)N[C@@H](CC(C)C)C(=O)N[C@@H](C)C(=O)O)C(C)(C)O)C(C)(C)O	4
CO[C@@H](CNC(=O)[C@H](NC(=O)[C@H](O)[C@H](C)O)[C@H](O)c1cncn1C)[C@H](O)[C@H](O)C(=O)N(C)[C@@H](Cc1ccccc1)C(=O)NCC(=O)N[C@H](C(=O)N[C@@H](CO)C(=O)N[C@H](C(=O)N[C@@H](CC(C)C)C(=O)N[C@@H](CO)C(=O)NCCN)C(C)(C)O)C(C)(C)O	2
CO[C@@H](CNC(=O)[C@H](NC(=O)[C@H](O)[C@H](C)O)[C@H](O)c1cncn1C)[C@H](O)[C@H](O)C(=O)N(C)[C@@H](Cc1ccccc1)C(=O)NCC(=O)N[C@H](C(=O)N[C@@H](CO)C(=O)N[C@H](C(=O)N[C@@H](CC(C)C)C(=O)N[C@@H](CO)C(=O)O)C(C)(C)O)C(C)(C)O ({Butanoyl(2R-OH,3S-OH)}-[dHis(βS-OH,π-Me)][Ava(2S,3R-(OH)2,4S-OMe)][NMeF]G[Val(3-OH)]S[Val(3-OH)]LS-OH)	4

Using the record for CC[C@H](C)[C@H](NC(=O)[C@@H](NC(=O)[C@H](CO)NC(=O)[C@@H](NC(=O)CNC(=O)[C@H](Cc1ccccc1)N(C)C(=O)[C@@H](O)[C@@H](O)[C@H](CNC(=O)[C@H](NC(=O)[C@H](O)[C@H](C)O)[C@H](O)c1cncn1C)OC)C(C)(C)O)C(C)(C)O)C(=O)N[C@@H](CO)C(=O)O , report its MIC. 4

Query CO[C@@H](CNC(=O)[C@H](NC(=O)[C@H](O)[C@H](C)O)[C@H](O)c1cncn1C)[C@H](O)[C@H](O)C(=O)N(C)[C@@H](Cc1ccccc1)C(=O)NCC(=O)N[C@H](C(=O)N[C@@H](C)C(=O)N[C@H](C(=O)N[C@@H](CC(C)C)C(=O)N[C@@H](CO)C(=O)O)C(C)(C)O)C(C)(C)O next 4
